# Assayed target: recombinant human CD3ε/δ heterodimer (human) (UniProt P07766)
# Sequence (P07766 23-126, stated change not applied, chain 1 of 2): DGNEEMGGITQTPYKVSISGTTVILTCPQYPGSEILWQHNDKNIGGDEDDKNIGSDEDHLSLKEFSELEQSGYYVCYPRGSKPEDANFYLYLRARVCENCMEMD
# Sequence (P04234 22-105, stated change not applied, chain 2 of 2, further chain): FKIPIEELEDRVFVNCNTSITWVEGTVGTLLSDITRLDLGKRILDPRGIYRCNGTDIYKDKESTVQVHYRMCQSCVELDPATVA
# Assay summary: ELISA, coated CD3ε/δ
Reported endpoint: Absorbance (450 nm)

>>> recorded_result("H03 (antibody, human IgG1, lambda, L234A L235A, V domains shown) VH: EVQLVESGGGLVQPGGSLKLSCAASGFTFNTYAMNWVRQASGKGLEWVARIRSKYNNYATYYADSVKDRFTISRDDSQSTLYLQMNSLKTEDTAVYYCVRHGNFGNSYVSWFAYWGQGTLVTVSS VL: QAVVTQEPSLTVSPGGTVTLTCRSSTGAVTTSNYANWFQQKPGQAPRTLIGGTNKRAPWTPARFSGSLLGGKAALTLSGAQPEDEAEYYCALWYSNLWVFGGGTKLTVLG")
0.113
>>> recorded_result("B09 (antibody, human IgG1, lambda, L234A L235A, V domains shown) VH: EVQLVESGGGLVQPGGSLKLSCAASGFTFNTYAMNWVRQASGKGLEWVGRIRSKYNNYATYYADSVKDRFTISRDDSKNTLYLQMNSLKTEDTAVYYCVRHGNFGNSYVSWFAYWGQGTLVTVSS VL: QAVVTQEPSLTVSPGGTVTLTCRSSTGAVTTSNYANWVQQKPGQAPRTLIYGTNKRAPWTPARFSGSLLGGKAALTLSGAQPEDEAEYYCALWYSNLWVFGGGTKLTVLG")
0.096
>>> recorded_result("B03 (antibody, human IgG1, lambda, L234A L235A, V domains shown) VH: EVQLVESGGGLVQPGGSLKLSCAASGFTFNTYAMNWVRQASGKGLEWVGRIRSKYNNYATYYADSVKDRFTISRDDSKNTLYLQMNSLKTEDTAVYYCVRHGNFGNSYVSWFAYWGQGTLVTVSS VL: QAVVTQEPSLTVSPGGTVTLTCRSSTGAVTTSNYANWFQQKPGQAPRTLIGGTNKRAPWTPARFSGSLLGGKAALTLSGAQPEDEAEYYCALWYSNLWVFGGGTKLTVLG")
0.126
